experiment: NCI Yeast Anticancer Drug Screen. Data for the rad18 strain (AID 177); conditions: S. cerevisiae rad18 mutant growth inhibition; at 11.0 µM
This is part of a sample that, as a whole, favours compounds with a hit. Of some 79,000 tested, about 15% had one in any assay. The source made the active and inactive calls. No stated cut-off is given here; in the data, active means growth inhibition above about 70%; inactive means the rest.
Possible outcomes: active, inactive

molecule: CC(C)/C(Cl)=N\OC(=O)Nc1ccc(F)cc1F
label-value: inactive
//
molecule: CCc1cc(O)c(Cl)c(C)c1Cl
label-value: inactive
//
molecule: O=c1[nH]c(-c2ccccc2)nc2c1sc1nc3ccccc3n12
label-value: inactive
//
molecule: CC1(C)CC(=O)C(/C=N/c2nc(-c3ccccc3)cs2)=C(O)C1
label-value: active
//
molecule: N#CC(=Nc1ccccc1F)Nc1ccccc1F
label-value: inactive
//
molecule: CC1=CC(=C(c2ccc(N)cc2)c2ccc(N)cc2)C=CC1=N
label-value: inactive
//
molecule: Oc1ccc(-c2nc(-c3ccc(F)cc3)c(-c3ccc4ccccc4n3)[nH]2)cc1
label-value: active
//
molecule: COc1ccc(C(=O)Oc2ccccc2Br)cc1
label-value: inactive
//
molecule: Oc1ccc(O)c(Cc2ccccc2)c1
label-value: active
//
molecule: CCCCOP(=O)(CCCP(=O)(OCCCC)OCCCC)OCCCC
label-value: inactive
//
molecule: CCC(C)NC1=NCC(C)S1 (configuration not stated)
label-value: inactive
//
molecule: O=[N+]([O-])c1cccc2nc3ccccc3c(NCCC[N+]3([O-])CCCCC3)c12
label-value: active
//
molecule: C/C=C/SC(=Nc1ccccc1)Nc1ccccc1
label-value: inactive
//
molecule: Cc1cc(-c2cc(C)c(O)c(C(C)(C)C)c2)cc(C(C)(C)C)c1O
label-value: inactive
//
molecule: NC(=S)NC(=S)Nc1ccccc1
label-value: inactive
//
molecule: O=C(O)C1CC(c2ccccc2)=NN1c1ccccc1 (configuration not stated)
label-value: inactive
//
molecule: COC(=O)/C=C(/C(=O)OC)C(Cl)(Cl)Cl
label-value: active
//
molecule: COC(=O)Oc1cc(Cl)c(Cl)cc1Cl
label-value: inactive
//
molecule: CN(C)CCOC1(Cc2ccc(F)cc2)CCC(C(C)(C)C)CC1 (configuration not stated)
label-value: inactive
//
molecule: CN(C)CCNc1ccc2ncnc3c2c1C(=O)c1ccccc1-3
label-value: inactive
//
molecule: CCOC(=O)C(C(=O)OCC)=P(c1ccccc1)(c1ccccc1)c1ccccc1
label-value: inactive
//
molecule: COc1cc2ccnc(-c3c4ccccc4c(N)c4c(OC)c(OC)ccc34)c2cc1OC
label-value: inactive
//
molecule: Cc1c2cccc(Sc3ccccc3)c2c2c3c(cccc13)[S+](c1ccccc1)C2 (configuration not stated)
label-value: active
//
molecule: NC1CCCCC1N.Nc1c(N=Nc2ccc(-c3ccc(N=Nc4cc(S(=O)(=O)[O-])c5ccccc5c4N)cc3)cc2)cc(S(=O)(=O)[O-])c2ccccc12.[OH3+].[OH3+].[Pt+4]
label-value: inactive
//
molecule: N#CC1=C(N)N(/N=C/c2ccccc2)C(c2ccccc2)C1(C#N)C#N (configuration not stated)
label-value: active
//
molecule: CCC(C)OC(=O)Nc1ccc(C)c(NC(=O)OC(C)CC)c1 (configuration not stated)
label-value: inactive
//
molecule: NNC(=O)CCc1cc2ccccc2c2ccccc12
label-value: inactive
//
molecule: O=C(O)c1cc2ccc(Cl)cc2c(O)c1C1=CCCCC1
label-value: inactive
//
molecule: Cc1ccc2nc(-c3cccc([N+](=O)[O-])c3)oc(=O)c2c1
label-value: inactive
//
molecule: COc1ccc(/C=C/c2sc3ccccc3[n+]2CCCCI)cc1OC
label-value: inactive
//
molecule: O=[N+]([O-])c1cc(F)c(F)cc1Sc1cc(F)c(F)cc1[N+](=O)[O-]
label-value: active
//
molecule: CCOC(=O)[C@H]1Nc2ccc(OC)cc2C2c3ccccc3CC21 (some centres not stated)
label-value: inactive
//
molecule: Cc1c(-c2ccccn2)ccc2ccccc12
label-value: inactive
//
molecule: CCCC/C=C/C(C)(C(=O)OCC)C(=O)OCC
label-value: inactive
//
molecule: O=C1C=C(N2CCN(c3ccccn3)CC2)C(=O)c2c(O)ccc(O)c21
label-value: inactive
//
molecule: Cc1cc2c(cc1C)[n+]([O-])c(-c1nc3ccccc3s1)c(N)[n+]2[O-]
label-value: inactive
//
molecule: CC12C(=O)OC(=O)C(c3ccccc31)c1ccccc12
label-value: inactive
//
molecule: CCCCCCOC(=O)NCCOC(=O)Nc1ccccc1
label-value: inactive
//
molecule: O=C1c2ccccc2C(=O)N1CCCC(=O)n1cc(F)c(=O)[nH]c1=O
label-value: inactive
//
molecule: c1ccc(Cc2cc(-c3ccccc3)n[nH]2)cc1
label-value: inactive
//
molecule: CCCCCCCCCCCCNC(C)=O
label-value: inactive
//
molecule: CCCCN(CCCC)CCC(O)c1cc2c(Cl)cc(Cl)cc2c2cc(C(F)(F)F)ccc12 (configuration not stated)
label-value: active
//
molecule: O=C(COC(=O)c1ccccc1)c1ccc(Br)cc1
label-value: inactive
//
molecule: Cc1ccc2c(c1)C1(SC(C)C(=O)N1c1ccc(Cl)cc1)C(=O)N2 (configuration not stated)
label-value: inactive
//
molecule: O=[N+]([O-])c1cc[n+]([O-])cc1
label-value: inactive
//
molecule: O=c1[nH]c2ccc(Cl)cc2o1
label-value: inactive
//
molecule: CC(C)C(C)/C=C\C(C)C1CCC2C3=CC=C4CC(O)CCC4(C)C3CCC21C (configuration not stated)
label-value: inactive
